Recorded Ki, one value per entry.
Target: UniProt O00255
Sequence (O00255 whole entry): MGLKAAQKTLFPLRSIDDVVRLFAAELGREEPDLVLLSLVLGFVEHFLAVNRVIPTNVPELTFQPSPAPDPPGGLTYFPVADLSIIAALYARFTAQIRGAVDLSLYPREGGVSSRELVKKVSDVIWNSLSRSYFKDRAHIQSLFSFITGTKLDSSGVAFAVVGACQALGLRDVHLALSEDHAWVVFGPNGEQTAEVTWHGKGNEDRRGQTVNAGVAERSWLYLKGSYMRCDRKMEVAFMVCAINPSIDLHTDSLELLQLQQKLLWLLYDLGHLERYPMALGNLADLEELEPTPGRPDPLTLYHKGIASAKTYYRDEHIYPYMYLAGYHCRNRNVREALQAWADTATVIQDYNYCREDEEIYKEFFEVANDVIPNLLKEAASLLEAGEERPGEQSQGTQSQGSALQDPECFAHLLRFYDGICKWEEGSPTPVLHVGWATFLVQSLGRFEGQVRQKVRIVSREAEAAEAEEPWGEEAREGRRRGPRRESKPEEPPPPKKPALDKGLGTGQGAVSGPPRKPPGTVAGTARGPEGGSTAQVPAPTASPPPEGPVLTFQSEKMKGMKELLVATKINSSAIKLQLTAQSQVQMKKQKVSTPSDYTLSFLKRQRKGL
Expressed in nM, but write only the number.

# example entries with known answers
# compound, units_label, Ki
data = [
    ("N#Cc1ccc(N2CCC(N3CCC(C4(C5CCCC5)NCCc5ccccc54)CC3)CC2)cc1 (stereo not drawn)", "nM", 207),
    ("O=S(=O)(c1ccncc1)c1ccc(N2CC(CN3CCC(C4(C5CCCC5)CN(CCN5CCOCC5)Cc5ccccc54)CC3)C2)cc1 (stereo not drawn)", "nM", 2.7),
    ("CCS(=O)(=O)c1ccc(N2CC(CN3CCC(C4(C5CCCC5)NCCc5ccccc54)CC3)C2)cc1 (stereo not drawn)", "nM", 10),
]

Observed Ki on UniProt O00255 for O=S(=O)(c1ccc(N2CC(CN3CCC(C4(C5CCCC5)NCCc5ccccc54)CC3)C2)cc1)C1CCC1 (stereo not drawn) , please. 11

Try this compound too: O=S(=O)(c1ccncc1)c1ccc(N2CC(CN3CCC(C4(C5CCCC5)NCCc5ccccc54)CC3)C2)cc1 (stereo not drawn) 4.6

Item: O=S(=O)(c1ccc(N2CC(CN3CCC(C4(C5CCCC5)NCCc5ccccc54)CC3)C2)cc1)C1CCCCC1 (stereo not drawn) 2.4

Ok, now O=S(=O)(c1ccncc1)c1ccc(N2CC(CN3CCC(C4(C5CCCC5)CN(C5CCC5)Cc5ccccc54)CC3)C2)cc1 (stereo not drawn) 2

Also O=S(=O)(c1ccncc1)c1ccc(N2CC(CN3CCC(C4(C5CCCC5)CNCc5ccccc54)CC3)C2)cc1 (stereo not drawn) , if possible. 1.7
